Reference source for all entries: PubChem BioAssay

- MEASUREMENT_NOTES: S. cerevisiae growth modulation with rapamycin, primary screen, strain BY4716, OD600, 96 h (AID 1091); also: test concentration not given here
- SETTINGS: called active from +8 up or from −8 down
Active and inactive are the calls of the source.
Outcome codes: active, inactive

| MOLECULE | CLASS |
| --- | --- |
| COC(=O)[C@@]1(Cc2ccc(OC)cc2)[C@H]2c3cc(C(=O)N(C)C)n(Cc4ccccc4)c3C[C@H]2CN1C(=O)c1ccccc1 | inactive |
| CC=CC(O)C1C=CC2C(=O)N(C)C(=O)C2N1Nc1ccc([N+](=O)[O-])cc1[N+](=O)[O-] (stereo not given) | inactive |
| CCOC(=O)C1=CC[C@@H](c2ccccc2C(F)(F)F)N(S(=O)(=O)c2ccc(C)cc2)C1 | inactive |
| Cc1ccc(S[C@]2(C(=O)NCCN3CCOCC3)CC(=O)N(Cc3ccccc3C(F)(F)F)[C@@H]2c2ccc(CO)cc2I)cc1 | inactive |
| O=C1C[C@]2(c3ccc([N+](=O)[O-])cc3)C(=O)N(Cc3ccccc3)c3cc(CO)ccc3[C@H]2N1CC12CC3CC(CC(C3)C1)C2 | inactive |
| C[C@@H]1ON(c2ccc(C(=O)OC(C)(C)C)cc2)[C@H](c2ccc(Br)cc2)[C@H]1C(=O)N1C(=O)OC[C@H]1Cc1ccccc1 | inactive |
| NC(=O)NCC#Cc1ccc2c(c1)[C@]1(C(=O)N2)[C@H](c2ccc(O)cc2)N2[C@H](c3ccccc3)[C@H](c3ccccc3)OC(=O)[C@H]2[C@@H]1C(=O)Nc1nc2ccccc2s1 | active |
| C=C(COC)/C(=C/C[C@@H](OC(=O)c1ccncc1)c1ccc(CO)o1)c1cnc2ccccc2c1 | inactive |
| COc1ccc(NN2C(C(O)c3ccco3)C=CC3C(=O)N(C4CCCCC4)C(=O)C32)cc1 (stereo not given) | inactive |
| COC(=O)[C@@]1(Cc2ccc(F)cc2)[C@H]2c3cc(C(=O)N4CCCC4)n(CCF)c3C[C@H]2CN1C(=O)c1ccccc1 | inactive |
| CC(C)N1CC=CC23O[C@@H]4C=CCOC(=O)[C@@H]4[C@H]2C(=O)N(C(C)CO)[C@@H]3C1=O (stereo not given in full) | inactive |
| C=CCN1Cc2ccccc2C[C@@]2(N=C(c3ccc(OCCCO)cc3)O[C@H]2c2ccccc2)C1=O | inactive |
| [N-]=[N+]=Nc1ccccc1C[C@@]1(C(=O)O)N=C(c2ccc(OCCCO)cc2)O[C@@H]1c1ccccc1 | inactive |
| C=C[C@@H](C)[C@H](OC(=O)Nc1ccc(SC)cc1)c1ccc(OCCO)cc1 | inactive |
| COC(=O)[C@@]1(Cc2ccc(OC)cc2)[C@H]2c3cc(C(=O)N(C)C)n(CCc4c[nH]c5ccc(O)cc45)c3C[C@H]2CN1C(=O)c1ccccc1 | inactive |

###

Below is a list of entries, each paired with its recorded z-score value.
- MEASUREMENT_NOTES: S. cerevisiae RM11-1a growth modifiers, primary screen, strain RM11-1a, OD600, basal, 24 h (AID 1177);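 also: cultures grown under basal conditions with no added stressor; test concentration not given here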
- SETTINGS: OD600, 24 h, higher = more signal, called active from +8 up or from −8 down
QUANTITY: z-score

| MOLECULE | QUANTITY | EXPERIMENTAL_VALUE |
| --- | --- | --- |
| Cc1ccc(S[C@]2(C(=O)NCCN3CCOCC3)CC(=O)N(Cc3ccccc3C(F)(F)F)[C@@H]2c2ccc(CO)cc2I)cc1 | z-score | -1.57 |
| Cc1c(NC(=O)/C(C#N)=C/C=C/c2ccc(N(C)C)cc2)c(=O)n(-c2ccccc2)n1C | z-score | -0.246 |
| COc1ccc([Si](C)(C)[C@H]2[C@H](CCn3cc([C@H](O)c4ccccc4)nn3)O[C@@]3(C(=O)N(Cc4ccc(N5CCOC5=O)cc4)c4ccccc43)[C@@H]2C)cc1 | z-score | 2.18 |
| NC(N)=NCc1cn(CCc2c[nH]c3ccccc23)nn1 | z-score | 0.191 |
| [N-]=[N+]=NCc1ccccc1[C@H]1OC(c2ccc(OCCCO)cc2)=N[C@@]1(CCS(=O)(=O)c1ccccc1)C(N)=O | z-score | -0.296 |
| CCCCN1CC=CC23O[C@@H]4/C=C\CCC(C)OC(=O)C4[C@H]2C(=O)N(CCCCCCO)[C@@H]3C1=O (stereo not given in full) | z-score | 0.432 |
| Cc1ccc(S[C@]2(C(=O)O)CC(=O)N(Cc3ccccc3Cl)[C@@H]2c2ccc(CO)cc2)cc1 | z-score | 0.573 |
| O=C1OCC=C[C@H]2OC34C=CCN(Cn5nnc6ccccc65)C(=O)[C@H]3N(CCCCCCO)C(=O)[C@@H]4[C@@H]12 (stereo not given in full) | z-score | -0.91 |
| CN(C)CCCNC(=O)[C@@]1(c2ccc([N+](=O)[O-])cc2)CC(=O)N(CC23CC4CC(CC(C4)C2)C3)[C@@H]1c1ccc(CO)cc1 | z-score | -8.93 |
| O=C1O[C@@H](c2ccccc2)[C@@H](c2ccccc2)N2[C@@H](c3ccc(O)cc3)[C@]3(C(=O)Nc4ccc(C#CCCO)cc43)[C@@H](C(=O)NC[C@H](O)c3ccccc3)[C@H]12 | z-score | 0.376 |
| CN1C(=O)C2C=CC(C(O)C3CCCCC3)N(N3CCCCC3)C2C1=O (stereo not given) | z-score | 1.51 |
| CCCCC(CC)C(O)C1C=CC2C(=O)N(c3ccccc3)C(=O)C2N1Nc1ccc([N+](=O)[O-])cc1 (stereo not given) | z-score | -0.066 |
| O=C1O[C@@H](c2ccccc2)[C@@H](c2ccccc2)N2[C@@H](c3ccc(O)cc3)[C@]3(C(=O)Nc4ccc(C#CC5=CCCCC5)cc43)[C@@H](C(=O)N3CCN(c4ncccn4)CC3)[C@H]12 | z-score | 0.207 |
| CC=CC(O)C1C=CC2C(=O)N(C)C(=O)C2N1N1CCCCC1 (stereo not given) | z-score | -0.714 |
| COCCOC(=O)N1C(=O)[C@@]2(c3cc(C#Cc4ccc(OC)cc4)ccc31)[C@H](C(=O)N1CCCCCCC1)[C@H]1C(=O)O[C@H](c3ccccc3)[C@H](c3ccccc3)N1[C@@H]2c1ccc(O)cc1 | z-score | 0.868 |

###

- MEASUREMENT_NOTES: P. aeruginosa biofilm formation inhibitors, primary screen, PAO1 strain, BacTiter-Glo luminescence, LB-PBS (AID 1144)
- SETTINGS: 12 h, higher = more signal

| COMPOUND | z-score |
| --- | --- |
| Cc1ccc(S[C@]2(C(=O)NCc3ccccc3)CC(=O)N(C(C)C)[C@@H]2c2ccc(CO)cc2I)cc1 | 0.201 |
| CC1CC/C=C\[C@H]2OC34C=CCN(c5ccc6ccccc6c5)C(=O)[C@H]3N(C(CO)C(C)C)C(=O)[C@@H]4C2C(=O)O1 (some centres undefined) | 1.27 |
| C[C@]1(C(=O)O)c2ccccc2C(=O)N(Cc2ccccc2)[C@H]1c1ccc(CO)cc1 | 0.461 |
| C[N+](C)(C)CCCC[C@@H]1NC(=O)[C@@H]2C[C@H](C(=O)O)[C@H](c3ccc(O)cc3)N2C1=O | -0.771 |

###

Below is a list of entries, each paired with its recorded z-score value.
- MEASUREMENT_NOTES: basal S. cerevisiae growth modulation, no modifier, primary screen, OD600, strain BY4716, 24 h, basal condition (AID 1173)
- SETTINGS: OD600, 24 h, higher = more signal, called active from +8 up or from −8 down
Calls of active or inactive are those of the source.

| COMPOUND | z-score |
| --- | --- |
| COCCOC(=O)N1C(=O)[C@@]2(c3cc(C#Cc4ccc(OC)cc4)ccc31)[C@H](C(=O)N1CCN(c3ncccn3)CC1)[C@H]1C(=O)O[C@H](c3ccccc3)[C@H](c3ccccc3)N1[C@@H]2c1ccccc1OCCO | 2.91 (inactive) |
| C[C@]1(C(=O)O)c2ccccc2C(=O)N(Cc2ccccc2)[C@H]1c1ccc(CO)cc1 | 0.451 (inactive) |
| CCOc1cc(C(O)C2C=CC3C(=O)N(C4CCCCC4)C(=O)C3N2Nc2ccc(OC)cc2)ccc1O (stereo not drawn) | 0.0779 (inactive) |
| O=C1c2ccccc2[C@](Cc2ccccc2I)(C(=O)NCCN2CCOCC2)[C@H](c2ccc(CO)cc2)N1Cc1ccccc1 | -0.915 (inactive) |
| COC1(C)CN(Cc2ccccc2Br)[C@H](/C=C/c2ccccc2)[C@H](Cc2ccccc2)O1 (stereo partly drawn) | -0.138 (inactive) |
| COc1ccc(NN2C(C(O)c3ccccn3)C=CC3C(=O)N(C4CCCCC4)C(=O)C32)cc1 (stereo not drawn) | -0.774 (inactive) |
| CC(C)C(CO)N1C(=O)[C@]2(C)C3C(=O)OCCC/C=C\[C@H]3OC23C=CCN(c2ccc(Cl)cc2)C(=O)[C@@H]13 (stereo partly drawn) | 0.0095 (inactive) |
| CCOC(=O)C[C@H]1[C@H](OC(=O)c2ccc(C(=O)c3ccccc3)cc2)[C@@H](NC(=O)c2ccc3ccccc3c2)c2cc(OCCCO)ccc2N1C(=O)c1ccccc1 | -0.592 (inactive) |
